Biological target: T1, human chemokine (C-C motif) receptor 8 (CCR8) (human, UniProt P51685 1-355)
T1 construct: also called hCCR8
T1 sequence (P51685 whole entry): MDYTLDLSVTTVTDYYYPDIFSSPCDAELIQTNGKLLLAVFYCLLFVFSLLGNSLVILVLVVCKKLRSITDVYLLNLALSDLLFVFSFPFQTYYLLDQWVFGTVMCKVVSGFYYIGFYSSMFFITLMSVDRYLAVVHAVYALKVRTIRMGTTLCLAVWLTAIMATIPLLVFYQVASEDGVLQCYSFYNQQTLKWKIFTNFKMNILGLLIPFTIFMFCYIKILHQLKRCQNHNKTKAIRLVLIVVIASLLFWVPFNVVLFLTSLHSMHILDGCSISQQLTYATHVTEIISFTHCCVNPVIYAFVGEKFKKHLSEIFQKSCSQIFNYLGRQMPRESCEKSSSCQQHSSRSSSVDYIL
Assay: flow cytometry blocking, human PBMC, CD3+ gate; competitor PE-AB13
Protocol: For blocking studies, 100 μL of the cell suspension were incubated with 10 μg purified isotype control, AB1, AB2, AB3, AB4, AB5, AB8, AB9, AB10, AB11, AB12, AB13, AB14, AB15, and Commercial ABI antibodies, or isotype control, as blocking agents. […]
Tag: Satisfied if measured % Blocking is not below 90%, Not satisfied if it is.

A selection of reference data follows.
Binder	Discrete label
anti-CCR8 monoclonal antibody AB8 (antibody, V domains shown, Hybridoma monoclonal; also called antibody 8; clone 8) VH: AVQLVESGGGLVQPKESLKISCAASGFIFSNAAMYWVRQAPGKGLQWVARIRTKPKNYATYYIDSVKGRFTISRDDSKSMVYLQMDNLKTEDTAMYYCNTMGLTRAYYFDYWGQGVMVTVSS VL: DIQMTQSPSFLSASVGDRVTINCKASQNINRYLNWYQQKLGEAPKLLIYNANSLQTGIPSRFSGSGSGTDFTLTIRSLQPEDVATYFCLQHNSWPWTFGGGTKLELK	Satisfied
anti-CCR8 monoclonal antibody AB11 (antibody, V domains shown, Hybridoma monoclonal; also called antibody 11; clone 11) VH: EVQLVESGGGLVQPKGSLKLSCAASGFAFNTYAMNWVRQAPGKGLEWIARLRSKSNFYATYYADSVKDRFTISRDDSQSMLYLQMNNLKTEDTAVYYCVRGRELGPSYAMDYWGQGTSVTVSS VL: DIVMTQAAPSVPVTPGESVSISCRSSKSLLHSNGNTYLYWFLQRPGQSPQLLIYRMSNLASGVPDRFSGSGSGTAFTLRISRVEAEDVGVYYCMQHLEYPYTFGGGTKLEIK	Satisfied
anti-CCR8 monoclonal antibody AB7 (antibody, V domains shown, Hybridoma monoclonal; also called antibody 7; clone 7) VH: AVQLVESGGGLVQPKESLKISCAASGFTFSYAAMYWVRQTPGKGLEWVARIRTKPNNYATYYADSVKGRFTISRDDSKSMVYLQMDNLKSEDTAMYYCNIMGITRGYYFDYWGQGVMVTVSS VL: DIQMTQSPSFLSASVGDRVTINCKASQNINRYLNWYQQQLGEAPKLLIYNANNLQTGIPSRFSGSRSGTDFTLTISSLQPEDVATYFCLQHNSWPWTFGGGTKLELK	Not satisfied
anti-CCR8 monoclonal antibody AB6 (antibody, V domains shown, also called antibody 6; clone 6) VH: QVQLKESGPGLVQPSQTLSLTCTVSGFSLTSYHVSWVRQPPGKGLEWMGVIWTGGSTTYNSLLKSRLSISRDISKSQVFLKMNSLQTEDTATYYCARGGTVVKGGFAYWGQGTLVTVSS VL: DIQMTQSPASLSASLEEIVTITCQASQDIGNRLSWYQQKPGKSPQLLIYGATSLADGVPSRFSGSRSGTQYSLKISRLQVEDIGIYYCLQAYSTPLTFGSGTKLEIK	Not satisfied

Could you verify whether the entry anti-CCR8 monoclonal antibody AB13 (antibody, V domains shown, Hybridoma monoclonal; also called antibody 13; clone 13) VH: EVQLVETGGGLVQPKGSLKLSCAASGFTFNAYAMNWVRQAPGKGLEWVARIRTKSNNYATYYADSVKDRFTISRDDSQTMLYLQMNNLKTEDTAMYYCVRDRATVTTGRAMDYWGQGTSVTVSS VL: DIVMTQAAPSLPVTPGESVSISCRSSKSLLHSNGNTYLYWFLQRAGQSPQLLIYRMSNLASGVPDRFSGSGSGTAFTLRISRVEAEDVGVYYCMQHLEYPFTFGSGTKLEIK shows % Blocking of no less than 90%?
Not satisfied
